Overview of recorded IC50 for various molecules
# target-under-test: hα2A receptor (Homo sapiens, UniProt P08913)
# Construct: expressed in transfected cells
# Sequence (P08913 whole entry): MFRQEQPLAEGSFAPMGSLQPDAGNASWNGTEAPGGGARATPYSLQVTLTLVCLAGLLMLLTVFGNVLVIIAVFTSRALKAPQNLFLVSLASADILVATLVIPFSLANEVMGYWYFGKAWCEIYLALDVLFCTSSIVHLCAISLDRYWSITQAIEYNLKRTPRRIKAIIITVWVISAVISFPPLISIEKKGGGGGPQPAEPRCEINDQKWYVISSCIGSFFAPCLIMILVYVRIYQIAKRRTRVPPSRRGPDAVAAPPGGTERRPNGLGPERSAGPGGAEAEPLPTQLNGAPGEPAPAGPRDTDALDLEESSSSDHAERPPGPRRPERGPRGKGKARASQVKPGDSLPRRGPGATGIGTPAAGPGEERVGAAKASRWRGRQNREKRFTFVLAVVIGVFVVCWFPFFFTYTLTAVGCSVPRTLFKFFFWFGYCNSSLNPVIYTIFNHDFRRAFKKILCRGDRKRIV
# protocol-summary: Radioligand binding experiment for hα2A receptor ([3H]-raulwolscine, CHO cell membranes)
# measurement-parameters: [3H]raulwolscine 1 nM, membranes of CHO cells transfected with human α2A receptor; read-out: h-α2A pIC50 (converted)
Report as a plain number; the unit nM is understood.

Some solved cases for reference:
molecule: CC(=O)Cn1ccnc(NC2CCN(CCOc3ccccc3)CC2)c1=O [Compound 5-4]
value-kind: IC50
endpoint-value: 126

molecule: O=C1c2ccccc2C(=O)N1CCCn1ccnc(N2CCN(CCOc3ccc(F)cc3)CC2)c1=O [Compound 8-2]
value-kind: IC50
endpoint-value: 100

molecule: O=C(Cn1ccnc(NC2CCN(CCOc3ccccc3)CC2)c1=O)NCC(c1ccccc1)c1ccccc1 [Compound 1-19]
value-kind: IC50
endpoint-value: 158

molecule: O=c1c(NC2CCN(CCOc3ccccc3)CC2)nccn1Cc1ccc2ccccc2n1 [Compound 6-3]
value-kind: IC50
endpoint-value: 200

molecule: O=C(Cn1ccnc(NC2CCN(CCOc3ccccc3)CC2)c1=O)Nc1ccc(F)cc1 [Compound 1-10]
value-kind: IC50
endpoint-value: 158

Any idea what IC50 came out for O=c1[nH]ccnc1N1CCN(CCOc2ccc(F)cc2)CC1 [Compound 13-1] on hα2A receptor (Homo sapiens, UniProt P08913)?
501

Any idea what IC50 came out for O=C(Cn1ccnc(NC2CCN(CCOc3ccccc3)CC2)c1=O)N1CCC(C(F)(F)F)CC1 [Compound 2-6] on hα2A receptor (Homo sapiens, UniProt P08913)?
100

Any idea what IC50 came out for O=c1c(NC2CCN(CCOc3ccccc3)CC2)nccn1CC1CCCCC1 [Compound 5-3] on hα2A receptor (Homo sapiens, UniProt P08913)?
251

---

# target-under-test: 5HT-Transporter (Homo sapiens, UniProt P31645)
# Construct: Human platelet membranes (Oceanix Biosciences Corporation, Hanover, Md., USA) were thawed; tissue Oceanix Biosciences Corporation; host or cells: human platelet membranes
# Sequence (P31645 whole entry): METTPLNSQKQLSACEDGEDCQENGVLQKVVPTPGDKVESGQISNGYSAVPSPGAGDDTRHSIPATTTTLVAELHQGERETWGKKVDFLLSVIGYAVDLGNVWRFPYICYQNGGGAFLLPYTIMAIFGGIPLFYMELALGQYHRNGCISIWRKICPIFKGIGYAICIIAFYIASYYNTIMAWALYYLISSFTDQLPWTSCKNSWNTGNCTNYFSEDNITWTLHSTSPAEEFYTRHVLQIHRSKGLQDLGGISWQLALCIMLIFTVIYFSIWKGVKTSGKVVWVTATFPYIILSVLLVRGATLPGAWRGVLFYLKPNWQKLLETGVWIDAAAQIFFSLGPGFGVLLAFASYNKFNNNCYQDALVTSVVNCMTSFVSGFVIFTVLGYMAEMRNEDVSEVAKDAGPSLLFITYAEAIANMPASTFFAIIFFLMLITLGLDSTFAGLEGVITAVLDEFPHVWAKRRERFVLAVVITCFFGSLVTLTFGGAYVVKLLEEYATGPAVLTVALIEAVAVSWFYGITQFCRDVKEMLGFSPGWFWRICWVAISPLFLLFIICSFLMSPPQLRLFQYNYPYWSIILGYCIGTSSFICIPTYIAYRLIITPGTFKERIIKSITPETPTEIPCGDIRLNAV
# protocol-summary: Binding experiment for the 5HT-transporter ([3H]paroxetine, human platelet membranes)
# measurement-parameters: [3H]paroxetine 0.5 nM, read-out: h-5HTT pIC50 (converted)
# note: exactly 2000 nM is not below, so it is condition not met; use condition met for IC50 strictly under it

molecule: O=c1c(NC2CCN(CCOc3ccccc3)CC2)nccn1Cc1ccccc1Br [Compound 4-1]
qualitative-label: condition not met

Confirm or reject: IC50 of CCCCN(Cc1ccccc1)C(=O)Cn1ccnc(NC2CCN(CCOc3ccccc3)CC2)c1=O [Compound 1-18] lies strictly below 2000 nM
condition not met

Confirm or reject: IC50 of CN(C)CCN(Cc1ccccc1)C(=O)Cn1ccnc(NC2CCN(CCOc3ccccc3)CC2)c1=O [Compound 1-21] lies strictly below 2000 nM
condition met

Confirm or reject: IC50 of COCCn1ccnc(NC2CCN(CCOc3ccccc3)CC2)c1=O [Compound 3-1] lies strictly below 2000 nM
condition not met

Confirm or reject: IC50 of CN(CCc1ccccc1)C(=O)Cn1ccnc(NC2CCN(CCOc3ccccc3)CC2)c1=O [Compound 1-16] lies strictly below 2000 nM
condition not met

Confirm or reject: IC50 of O=c1c(NC2CCN(CCOc3ccccc3)CC2)nccn1Cc1ccc2ccccc2c1 [Compound 4-7] lies strictly below 2000 nM
condition met

Confirm or reject: IC50 of O=c1c(NC2CCN(CCOc3ccccc3)CC2)nccn1CCCn1c(=O)[nH]c2ccccc21 [Compound 2-17] lies strictly below 2000 nM
condition not met

---

Overview of recorded IC50 for various molecules
# target-under-test: 5HT-Transporter (Homo sapiens, UniProt P31645)
# Construct: Human platelet membranes (Oceanix Biosciences Corporation, Hanover, Md., USA) were thawed; tissue Oceanix Biosciences Corporation; host or cells: human platelet membranes
# protocol-summary: Binding experiment for the 5HT-transporter ([3H]paroxetine, human platelet membranes)
# measurement-parameters: [3H]paroxetine 0.5 nM, read-out: h-5HTT pIC50 (converted)
Report as a plain number; the unit µM is understood.

Some solved cases for reference:
smiles-data: O=C(Cn1ccnc(N2CCN(CCOc3ccc(F)cc3)CC2)c1=O)c1ccccc1
IC50 (µM): 3.98
--
smiles-data: O=c1c(NC2CCN(CCOc3ccccc3)CC2)nccn1-c1cccc(NCc2ccccc2)c1
IC50 (µM): 2.51
--
smiles-data: O=C1c2ccccc2C(=O)N1CC#CCn1ccnc(NC2CCN(CCOc3ccccc3)CC2)c1=O
IC50 (µM): 1.26
--
smiles-data: CN(C(=O)Cn1ccnc(NC2CCN(CCOc3ccccc3)CC2)c1=O)c1ccccc1
IC50 (µM): 3.98

Quick check: IC50 of "O=C1c2ccccc2C(=O)N1CCCn1ccnc(N2CCN(CCOc3ccc(F)cc3)CC2)c1=O" ?
0.631

---

# target-under-test: 5HT-Transporter (Homo sapiens, UniProt P31645)
# Construct: Human platelet membranes (Oceanix Biosciences Corporation, Hanover, Md., USA) were thawed; tissue Oceanix Biosciences Corporation; host or cells: human platelet membranes
# protocol-summary: Binding experiment for the 5HT-transporter ([3H]paroxetine, human platelet membranes)
# measurement-parameters: [3H]paroxetine 0.5 nM, read-out: h-5HTT pIC50 (converted)
# note: exactly 6 µM is not below, so it is Criterion not met; use Criterion met for IC50 strictly under it

Field: example entries. Status: answers known.
smiles-data: CN(C)CCn1ccnc(NC2CCN(CCOc3ccccc3)CC2)c1=O
qualitative-label: Criterion not met
//
smiles-data: O=c1c(N2CCN(CCOc3ccc(F)cc3)CC2)nccn1CC1CCCCC1
qualitative-label: Criterion not met
//
smiles-data: O=c1c(N2CCN(CCOc3ccc(F)cc3)CC2)nccn1Cc1ccc(Cl)s1
qualitative-label: Criterion not met
//
smiles-data: O=c1c(NC2CCN(CCOc3ccccc3)CC2)nccn1-c1ccc(N2CCCCC2)cc1
qualitative-label: Criterion met
//
smiles-data: O=c1[nH]ccnc1NC1CCN(CCOc2ccccc2)CC1
qualitative-label: Criterion not met

Confirm or reject: IC50 of "CC(C)(C)C(=O)Cn1ccnc(N2CCN(CCOc3ccc(F)cc3)CC2)c1=O" lies strictly below 6 µM
Criterion not met

Confirm or reject: IC50 of "O=c1c(NC2CCN(CCOc3ccccc3)CC2)nccn1-c1cccc(N2CCC(N3CCCC3)CC2)c1" lies strictly below 6 µM
Criterion not met

Confirm or reject: IC50 of "O=C(Cn1ccnc(NC2CCN(CCOc3ccccc3)CC2)c1=O)N1CCCCC1" lies strictly below 6 µM
Criterion not met

Confirm or reject: IC50 of "CCCn1ccnc(NC2CCN(CCOc3ccccc3)CC2)c1=O" lies strictly below 6 µM
Criterion not met

Confirm or reject: IC50 of "CCOC(=O)CCCCn1ccnc(NC2CCN(CCOc3ccccc3)CC2)c1=O" lies strictly below 6 µM
Criterion met

Confirm or reject: IC50 of "O=c1c(NC2CCN(CCOc3ccccc3)CC2)nccn1-c1ccc(CN2CCCCC2)cc1" lies strictly below 6 µM
Criterion met

Confirm or reject: IC50 of "O=c1c(N2CCN(CCOc3ccc(F)cc3)CC2)nccn1CC(c1ccccc1)c1ccccc1" lies strictly below 6 µM
Criterion not met

---

# target-under-test: 5HT-Transporter (Homo sapiens, UniProt P31645)
# Construct: Human platelet membranes (Oceanix Biosciences Corporation, Hanover, Md., USA) were thawed; tissue Oceanix Biosciences Corporation; host or cells: human platelet membranes
# protocol-summary: Binding experiment for the 5HT-transporter ([3H]paroxetine, human platelet membranes)
# measurement-parameters: [3H]paroxetine 0.5 nM, read-out: h-5HTT pIC50 (converted)
Overview of recorded IC50 for various compounds

Some solved cases for reference:
smiles-data: O=C(Cn1ccnc(NC2CCN(CCOc3ccccc3)CC2)c1=O)N1CCC(C(F)(F)F)CC1
IC50: > 10 µM
--
smiles-data: CC(C)(C)C(=O)Cn1ccnc(NC2CCN(CCOc3ccccc3)CC2)c1=O
IC50: > 10 µM

# evaluate next
Quick check: IC50 of "Cc1nc(Cn2ccnc(N3CCN(CCOc4ccc(F)cc4)CC3)c2=O)cs1" ?
> 10 µM

---

# target-under-test: hα2C receptor (Homo sapiens, UniProt P18825)
# Construct: expressed in transfected cells
# Sequence (P18825 whole entry): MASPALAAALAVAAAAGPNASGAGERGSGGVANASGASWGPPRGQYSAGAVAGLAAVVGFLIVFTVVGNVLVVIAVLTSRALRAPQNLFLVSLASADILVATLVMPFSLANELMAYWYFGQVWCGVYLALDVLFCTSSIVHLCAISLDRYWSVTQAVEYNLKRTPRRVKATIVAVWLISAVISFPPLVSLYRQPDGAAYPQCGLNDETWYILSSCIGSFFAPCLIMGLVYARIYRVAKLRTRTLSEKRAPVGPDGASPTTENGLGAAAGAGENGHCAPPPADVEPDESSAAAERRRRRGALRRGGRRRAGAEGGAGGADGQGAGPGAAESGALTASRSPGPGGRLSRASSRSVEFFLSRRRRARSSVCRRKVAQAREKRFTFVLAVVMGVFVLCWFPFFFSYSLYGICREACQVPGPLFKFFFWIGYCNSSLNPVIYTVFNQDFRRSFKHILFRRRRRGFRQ
# protocol-summary: Radioligand binding experiment for α2C-adrenoceptor ([3H]-raulwolscine, CHO cell membranes)
# measurement-parameters: [3H]raulwolscine 1 nM, membranes of CHO cells transfected with human α2C receptor; read-out: h-α2C pIC50 (converted)
Overview of recorded IC50 for various molecules
Report as a plain number; the unit nM is understood.

Some solved cases for reference:
smiles-data: O=c1c(NC2CCN(CCOc3ccccc3)CC2)nccn1CCN1CCCCC1
value-kind: IC50
endpoint-value: 2.51
//
smiles-data: CCCn1ccnc(N2CCN(CCOc3ccc(F)cc3)CC2)c1=O
value-kind: IC50
endpoint-value: 398
//
smiles-data: O=C(Cn1ccnc(NC2CCN(CCOc3ccccc3)CC2)c1=O)Nc1ccc(F)cc1
value-kind: IC50
endpoint-value: 3.98
//
smiles-data: O=c1c(NC2CCN(CCOc3ccccc3)CC2)nccn1CCc1ccccc1
value-kind: IC50
endpoint-value: 15.8

Quick check: IC50 of "O=c1c(NC2CCN(CCOc3ccccc3)CC2)nccn1Cc1ccc2ccccc2n1" ?
7.94

Quick check: IC50 of "CN(C)C(=O)Cn1ccnc(NC2CCN(CCOc3ccccc3)CC2)c1=O" ?
39.8

Quick check: IC50 of "O=C(Cn1ccnc(NC2CCN(CCOc3ccccc3)CC2)c1=O)NCc1ccccc1" ?
6.31

Quick check: IC50 of "O=c1c(N2CCN(CCOc3ccc(F)cc3)CC2)nccn1Cc1ccco1" ?
251

Quick check: IC50 of "O=C(Cn1ccnc(NC2CCN(CCOc3ccccc3)CC2)c1=O)N1CCC(Cc2ccccc2)CC1" ?
5.01
